# measurement_protocol: Toxicity in Swiss mouse infected with multidrug-resistant Plasmodium yoelii nigeriensis assessed as animal survival at 24 mg/kg, IM for 4 days measured on day 28
# Type: organism-based
# condition: in vivo, time 4 day, read-out: Activity
assay_endpoint: survival at 96 h (%)

smiles_entry	assay_endpoint	observed_measurement
C[C@@H]1CC[C@H]2[C@@H](C)C(=O)N(/N=C/c3ccc[nH]3)[C@@H]3O[C@@]4(C)CC[C@@H]1[C@@]23OO4	survival at 96 h	40

* * *

# measurement_protocol: Toxicity in Swiss mouse infected with multidrug-resistant Plasmodium yoelii nigeriensis assessed as animal survival at 24 mg/kg, po for 4 days measured on day 28
# Assay type: organism-based
# condition: Swiss, in vivo, time 4 day, read-out: Activity

smiles_entry	survival at 96 h / %
C[C@@H]1CC[C@H]2[C@@H](C)C(=O)N(/N=C/c3ccco3)[C@@H]3O[C@@]4(C)CC[C@@H]1[C@@]23OO4	80
